Source of measurements: the SangsterLogP compilation

assay: method code SF, from DOI: 10.1016/j.ejps.2012.10.019, PMID: 23131797; details: pH 5.0
Recorded logD by entry

Consider the following illustrative entries.
INSERT INTO results (smiles, observed) VALUES
  ('O=C(CSc1nc2ccccc2s1)c1cccs1', 4.04),
  ('COC(=O)c1cnn2c(C(F)(F)F)cc(-c3cc(OC)c(OC)c(OC)c3)nc12', 4.08),
  ('CCCN(CC1CC1)C(=S)Nc1cc([N+](=O)[O-])ccc1Cl', 4.1),
  ('CCc1c(C#N)c(SCC(=O)N2CCc3cc(OC)c(OC)cc3C2)nc2c1C(=O)CC(C)(C)C2', 4.89);

Requested read-out: logD. Entry: O=C(Nc1ccccc1C(F)(F)F)NC1CCCCC1
4

Please look up its logD: O=C(Nc1ccccc1C(F)(F)F)C1CCC1
2.55

Report logD for COCc1cc(OC(=O)N(C)C)nc(SCC(=O)C(C)(C)C)n1 please.
3.33

What does the record list as logD for Cc1c(OCc2ccccc2)cccc1[N+](=O)[O-] ?
4.41

###

details: pH 10.5
ENDPOINT: logD
Lab note: jot down the number only; don't add units.

# example entries with known answers
INSERT INTO measurements (smiles, endpoint, observed) VALUES
  ('Cc1ccc(NCc2ccc3n2C/C(=C2/CCn4c(CNc5ccc(C)cc5)ccc42)C3=O)cc1', 'logD', 6.51),
  ('Clc1ccc(/C=N/NC2=Cn3c(nc4ccccc43)NN2)cc1', 'logD', 4.81),
  ('Cn1c(N)c(C(=O)CSc2nc3sc4c(c3c(=O)n2Cc2ccccc2)CCC4)c(=O)n(C)c1=O', 'logD', 5.21);

Next:
Recorded logD for Cc1ccc([C@@H](O)C#CC(O)(c2ccccc2)c2ccccc2)o1 , please?
3.53
